Measured on: T1, human IGSF11 (VSIG3) on cells (human, UniProt Q5DX21 23-431)
T1 sequence: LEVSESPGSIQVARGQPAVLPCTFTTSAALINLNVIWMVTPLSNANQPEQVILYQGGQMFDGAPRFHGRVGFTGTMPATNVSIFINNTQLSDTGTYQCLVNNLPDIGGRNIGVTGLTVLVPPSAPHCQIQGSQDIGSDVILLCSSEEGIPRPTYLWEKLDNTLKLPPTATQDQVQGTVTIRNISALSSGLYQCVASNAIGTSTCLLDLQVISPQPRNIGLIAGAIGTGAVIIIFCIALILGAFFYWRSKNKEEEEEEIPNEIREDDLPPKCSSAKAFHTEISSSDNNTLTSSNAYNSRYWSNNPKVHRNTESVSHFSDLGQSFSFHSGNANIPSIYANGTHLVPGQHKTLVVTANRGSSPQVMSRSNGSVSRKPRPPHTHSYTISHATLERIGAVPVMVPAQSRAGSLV
Measurement notes: FACS, IgG1-format antibodies; DMS 273 cells (D) treated with IGSF11 siRNA (KD)
Observed property: percentage binding (FACS heat-map)
# do not omit the unit; it follows the number

Bench note: what percentage binding (FACS heat-map) did A-012 (IgG1 format) (antibody, V domains shown, human IgG1 format) VH: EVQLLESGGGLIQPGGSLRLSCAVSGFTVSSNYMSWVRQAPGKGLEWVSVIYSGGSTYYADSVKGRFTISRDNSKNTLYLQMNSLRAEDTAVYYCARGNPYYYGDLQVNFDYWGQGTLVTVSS VL: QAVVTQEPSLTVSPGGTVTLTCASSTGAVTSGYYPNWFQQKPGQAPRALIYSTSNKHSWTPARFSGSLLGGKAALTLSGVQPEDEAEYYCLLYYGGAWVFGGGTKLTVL show?
4.77%

// same read-out, input: A-026 (IgG1 format) (antibody, V domains shown, human IgG1 format) VH: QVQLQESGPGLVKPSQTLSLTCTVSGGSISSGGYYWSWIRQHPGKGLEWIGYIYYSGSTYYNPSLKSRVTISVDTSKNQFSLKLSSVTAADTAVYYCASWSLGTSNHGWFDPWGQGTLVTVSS VL: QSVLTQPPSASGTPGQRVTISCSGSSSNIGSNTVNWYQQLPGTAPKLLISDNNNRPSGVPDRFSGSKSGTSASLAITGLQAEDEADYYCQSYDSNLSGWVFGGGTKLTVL
3.81%

// same read-out, input: B-002 (chain-swapped IgG1) (antibody, V domains shown, human IgG1 format; also called B2) VH: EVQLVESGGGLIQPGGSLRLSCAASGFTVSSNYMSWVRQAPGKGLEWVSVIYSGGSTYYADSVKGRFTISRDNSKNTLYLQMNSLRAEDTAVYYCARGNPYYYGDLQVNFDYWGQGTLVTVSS VL: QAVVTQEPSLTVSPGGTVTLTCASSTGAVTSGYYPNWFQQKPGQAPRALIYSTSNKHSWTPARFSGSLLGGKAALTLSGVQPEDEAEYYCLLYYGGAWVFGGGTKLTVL
8.68%

Just for reference, patent US20240010720A1 is where these values come from.
